These measurements were taken from patent US20160122421A1.

molecular target: T1, 383 amino acid recombinant tau (UniProt P10636-6 1-383, biotinylated where printed as biotin-rTau383 (position not given)); test: Octet
T1 construct: also called rTau383
T1 sequence (P10636 other isoform, or with tags, fused parts or gaps limits assumed): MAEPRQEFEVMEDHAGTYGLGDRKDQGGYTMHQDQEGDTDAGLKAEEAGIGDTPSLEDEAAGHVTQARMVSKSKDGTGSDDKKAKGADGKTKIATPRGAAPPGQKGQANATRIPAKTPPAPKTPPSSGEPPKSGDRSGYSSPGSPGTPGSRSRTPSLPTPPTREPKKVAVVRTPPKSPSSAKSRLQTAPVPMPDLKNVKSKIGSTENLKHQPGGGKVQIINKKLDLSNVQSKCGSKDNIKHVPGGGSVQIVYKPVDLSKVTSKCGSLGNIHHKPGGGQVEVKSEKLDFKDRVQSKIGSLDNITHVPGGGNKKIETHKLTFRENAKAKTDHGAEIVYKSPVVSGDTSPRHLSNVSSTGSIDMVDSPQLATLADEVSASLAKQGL
pKd: −log10 of the molar value.
metric: pKd

| binder | metric | quantitative.readout |
| --- | --- | --- |
| VH4/Vk3 (antibody, V domains shown, member of the group m7; also called humanized IPN002 variant VH4/Vk3) VH: EVQLVESGGALVKPGGSLRLSCAASGFSFSKYGMSWVRQAPGKGLEWVATISSSGSRTYYPDSVKGRFTISRDNAKNTLYLQMNSLRAEDTAMYYCAISWDGAMDYWGQGTTVTVSS VL: DVVMTQSPLSLPVTLGQPASISCKSSQSIVHSNGNTYLEWYLQKPGQSPQLLVYKVSNRFSGVPDRFSGSGSGTDFTLKISRVEAEDVGVYYCFQGSLVPWAFGGGTKVEIK | pKd | 9.24 |
| VH4/Vk4 (antibody, V domains shown, member of the group m7; also called humanized IPN002 variant VH4/Vk4) VH: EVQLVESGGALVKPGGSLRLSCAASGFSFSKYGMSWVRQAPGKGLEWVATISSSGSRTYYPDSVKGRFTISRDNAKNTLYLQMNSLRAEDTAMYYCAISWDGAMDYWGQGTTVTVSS VL: DVVMTQSPLSLPVTLGQPASISCKSSQSIVHSNGNTYLEWYLQKPGQSPQLLIYKVSNRFSGVPDRFSGSGSGTDFTLKISRVEAEDVGVYYCFQGSLVPWAFGGGTKVEIK | pKd | 9.09 |
